Assay: Cytotoxicity against MDR1 deficient human KB cells assessed as decrease in cell viability after 4 days by MTS assay
Type: functional, cell-based
Settings: 96 h
Measured IC50 values are reported for all entries that follow.
Experimental Readout: IC50

chemical_string=CC[C@H](C)[C@H](NC(=O)[C@H]1CCCCN1)C(=O)N(C)[C@H](C[C@@H](OC(C)=O)c1nc(C(=O)N[C@@H](Cc2ccccc2)C[C@H](C)C(=O)OC)cs1)C(C)C experimental_readout=IC50 reported_value="2.6 nM"
chemical_string=CC[C@H](C)[C@H](NC(=O)[C@@]1(C)CCCN1C)C(=O)N(C)[C@H](C[C@@H](OC(C)=O)c1nc(C(=O)N[C@@H](Cc2ccccc2)c2nccs2)cs1)C(C)C experimental_readout=IC50 reported_value="37.9 nM"
chemical_string=CC[C@H](C)[C@H](NC(=O)[C@@]1(C)CCCN1C)C(=O)N(C)[C@H](C[C@@H](OC(C)=O)c1nc(C(=O)N[C@@H](Cc2ccccc2)[C@@H](O)C(=O)OC)cs1)C(C)C experimental_readout=IC50 reported_value="6.28 nM"
